Data origin, for the record: patent US20210171647A1

System name: T1, human OX40 extracellular domain (ECD) protein (human, UniProt P43489 29-214)
T1 construct: extracellular domain; also called human OX40 ECD; human OX40 protein; not shown: human Fc or His tag
T1 sequence (looked up): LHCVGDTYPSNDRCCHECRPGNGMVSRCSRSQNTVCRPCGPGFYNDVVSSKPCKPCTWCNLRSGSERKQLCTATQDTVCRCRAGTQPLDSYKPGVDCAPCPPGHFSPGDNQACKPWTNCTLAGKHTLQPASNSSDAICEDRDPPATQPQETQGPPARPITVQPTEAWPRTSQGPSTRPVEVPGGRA
Protocol details: SPR, Biacore T200, antibody captured, OX40 as analyte
kon listing for selected binders.
Express it in M⁻¹ s⁻¹; write the number only.

As a guide, the following entries are already answered.
# Binder, Result
data = [
    ("1.214.23-u1-IgG1K (antibody, V domains shown, fully human IgG1, kappa) VH: QVQLQESGPGLVKPSGTLSLTCVVSGGSISNRNWWSWVRQPPGKGLEWIGEIFHSGNTNYNPSLKSRVTISVDKSKNQFSLKVNSVTAADTAVYYCAKSFAVALDSWGQGTLVTVSS VL: DIQLTQSPSFLSASVGDRVTITCRASQDINSYLAWCQQKPGKAPKLLIYAASSLQSGVPSRFSGTGSGTEFTLTISSLQPEDFATYYCQQLFSYPITFGQGTRLEIK", 426000),
    ("1.7.10-u1-IgG1K (antibody, V domains shown, fully human IgG1, kappa) VH: QVHLVESGGGLVKPGGSLRLSCAASGFTFSDYYMSWIRQAPGKGLEWVSYISGSGNTIYYADSVKGRFTISRDNAKNSLYLQMNSLRADDTAVYFCARERGAAGTGWFDPWGQGTLVTVSS VL: DIQMTQSPSSVSASVGDRVTITCRASQGISSWLAWYQQKPGKAPKLLIYAASSLQGGVPSRFSGSGSGTDFTLTISSLQPEDFATYYCQQVNSFPWTFGQGTKVEIK", 860000),
    ("1.186.19-u1-IgG1K (antibody, V domains shown, fully human IgG1, kappa) VH: QVHLVESGGGLVKPGGSLRLSCAASGFTFSDYYMGWIRQAPGQGLEWVSYISGSGNTIYYADSVKGRFTISRDNAKNSLYLQMNSLRADDTAVYFCAKERGAAGAGWFDPWGQGTLVTVSS VL: DIQMTQSPSSVSASVGDRVTITCRASQGISSWLAWYQQKPGKAPKLLIYAASSLQGGVPSRFSGSGSGTDFTLTISSLQPEDFATYHCQQVNSFPWTFGQGTKVEIK", 390000),
]

// next item, kon requested
Enquiry: Please look up its kon: 1.134.9-u1-IgG1L (antibody, V domains shown, fully human IgG1, lambda) VH: QVQLQESGPGLVKPSGTLSLTCAVSGGSISSYNWWSWVRQPPGKGLEWIGEIYHGGNTNYNPSLKSRVTMSVDNSKNQFSLKLSSVTAADTAVYYCARAPGDWGGSPYFDFWGQGTLVTVSS VL: SSELTQDPAVSVALGQTVRITCQGDNLRTYYASWYQQKPGQAPILLIYGRNKRPSGIPDRFSGSSSGNTASLTITGAQAEDEAAYYCNSRDSSGNPVVFGGGTKLTVL
Return: 207000
